Molecular target: human Nav1.1 (Homo sapiens, UniProt P35498)
Construct: host or cells: HEK293
Assay: Amplification of Nav1.1-derived voltage-dependent sodium current (Nav1.1 current), cell line stably expressing human Nav1.1, automated patch clamp
Format: cell-based
Conditions: 10 μmol/L compound; change of the area under the curve of Nav1.1 current (Test Result 1); read-out: Nav1.1 current amplification rate (%)
property-label: activation at 10 µM (%)
Express it in %; write the number only.

Ask: Looking for the measured activation at 10 µM of O=C(Cn1nc(N2CCC3(CCCC3)C2)ccc1=O)Nc1ccn2nccc2c1 , can you help?
Result: 155

Ask: How about O=C(Cn1nc(N2CC3(CCCCC3)C2)ccc1=O)Nc1ccn2ccnc2c1 ?
Result: 27

Ask: Repeat with CC1CCN(c2ccc(=O)n(CC(=O)Nc3cc(F)c4ocnc4c3)n2)CC1
Result: 121

Ask: Now try O=C(Cn1nc(N2CCC3(CCC3)C2)cc(N2CCCC2)c1=O)Nc1ccc2ocnc2c1 .
Result: 89

Ask: What would you report for O=C(Cn1nc(N2CCC3(CCC3)CC2)ccc1=O)N1CCc2cnccc21 ?
Result: 22

Ask: Can you check CC1CCN(c2ccc(=O)n(CC(=O)N3CCc4cc(N5CCOCC5)ccc43)n2)CC1 next?
Result: 187

Ask: For Cc1c(N2CCC(C)CC2)nn(CC(=O)Nc2ccc(C#N)nc2)c(=O)c1C then?
Result: 197

Ask: Field entry: N#Cc1ccc(NC(=O)Cn2nc(N3CCC4(CCCC4)C3)ccc2=O)cn1
Result: 184

====

Please provide measured Nav1.5 current amplification rate (%) for the entries that follow.
Molecular target: human Nav1.5 (Homo sapiens)
Construct: expressed in transfected cells; host or cells: CHO-K1 (T-REx System, ThermoFisher Scientific)
Assay: Amplification of Nav1.5-derived voltage-dependent sodium current (Nav1.5 current), cell line stably expressing human Nav1.5, automated patch clamp
Format: cell-based
Conditions: compound 1 μmol/L; CHO-K1 stably expressing human Nav1.5
Supply the numeric figure in %, leaving out any unit text.

Ask: Query Nav1.5 current amplification rate (%) on human Nav1.5 (Homo sapiens) for CC1CC=C(c2ccc(=O)n(CC(=O)N3CCc4c(Cn5cncn5)cccc43)n2)CC1 (racemic)
Result: 427

Ask: Now try CC1CC=C(c2ccc(=O)n(CC(=O)Nc3ccc4nccn4n3)n2)CC1 (racemic) .
Result: 27

Ask: Next entry: CC1CC=C(c2ccc(=O)n(CC(=O)Nc3ccn4ncnc4c3)n2)CC1 (racemic)
Result: 47

Ask: Next record, please: CC1CC=C(c2ccc(=O)n(CC(=O)Nc3ccnc(C#N)c3)n2)CC1 (racemic)
Result: 24

====

Target: human Nav1.5 (Homo sapiens, UniProt Q14524)
Construct: expressed in transfected cells; host or cells: CHO-K1 (T-REx System, ThermoFisher Scientific)
Sequence (Q14524 1-2015 isoform Q14524-2): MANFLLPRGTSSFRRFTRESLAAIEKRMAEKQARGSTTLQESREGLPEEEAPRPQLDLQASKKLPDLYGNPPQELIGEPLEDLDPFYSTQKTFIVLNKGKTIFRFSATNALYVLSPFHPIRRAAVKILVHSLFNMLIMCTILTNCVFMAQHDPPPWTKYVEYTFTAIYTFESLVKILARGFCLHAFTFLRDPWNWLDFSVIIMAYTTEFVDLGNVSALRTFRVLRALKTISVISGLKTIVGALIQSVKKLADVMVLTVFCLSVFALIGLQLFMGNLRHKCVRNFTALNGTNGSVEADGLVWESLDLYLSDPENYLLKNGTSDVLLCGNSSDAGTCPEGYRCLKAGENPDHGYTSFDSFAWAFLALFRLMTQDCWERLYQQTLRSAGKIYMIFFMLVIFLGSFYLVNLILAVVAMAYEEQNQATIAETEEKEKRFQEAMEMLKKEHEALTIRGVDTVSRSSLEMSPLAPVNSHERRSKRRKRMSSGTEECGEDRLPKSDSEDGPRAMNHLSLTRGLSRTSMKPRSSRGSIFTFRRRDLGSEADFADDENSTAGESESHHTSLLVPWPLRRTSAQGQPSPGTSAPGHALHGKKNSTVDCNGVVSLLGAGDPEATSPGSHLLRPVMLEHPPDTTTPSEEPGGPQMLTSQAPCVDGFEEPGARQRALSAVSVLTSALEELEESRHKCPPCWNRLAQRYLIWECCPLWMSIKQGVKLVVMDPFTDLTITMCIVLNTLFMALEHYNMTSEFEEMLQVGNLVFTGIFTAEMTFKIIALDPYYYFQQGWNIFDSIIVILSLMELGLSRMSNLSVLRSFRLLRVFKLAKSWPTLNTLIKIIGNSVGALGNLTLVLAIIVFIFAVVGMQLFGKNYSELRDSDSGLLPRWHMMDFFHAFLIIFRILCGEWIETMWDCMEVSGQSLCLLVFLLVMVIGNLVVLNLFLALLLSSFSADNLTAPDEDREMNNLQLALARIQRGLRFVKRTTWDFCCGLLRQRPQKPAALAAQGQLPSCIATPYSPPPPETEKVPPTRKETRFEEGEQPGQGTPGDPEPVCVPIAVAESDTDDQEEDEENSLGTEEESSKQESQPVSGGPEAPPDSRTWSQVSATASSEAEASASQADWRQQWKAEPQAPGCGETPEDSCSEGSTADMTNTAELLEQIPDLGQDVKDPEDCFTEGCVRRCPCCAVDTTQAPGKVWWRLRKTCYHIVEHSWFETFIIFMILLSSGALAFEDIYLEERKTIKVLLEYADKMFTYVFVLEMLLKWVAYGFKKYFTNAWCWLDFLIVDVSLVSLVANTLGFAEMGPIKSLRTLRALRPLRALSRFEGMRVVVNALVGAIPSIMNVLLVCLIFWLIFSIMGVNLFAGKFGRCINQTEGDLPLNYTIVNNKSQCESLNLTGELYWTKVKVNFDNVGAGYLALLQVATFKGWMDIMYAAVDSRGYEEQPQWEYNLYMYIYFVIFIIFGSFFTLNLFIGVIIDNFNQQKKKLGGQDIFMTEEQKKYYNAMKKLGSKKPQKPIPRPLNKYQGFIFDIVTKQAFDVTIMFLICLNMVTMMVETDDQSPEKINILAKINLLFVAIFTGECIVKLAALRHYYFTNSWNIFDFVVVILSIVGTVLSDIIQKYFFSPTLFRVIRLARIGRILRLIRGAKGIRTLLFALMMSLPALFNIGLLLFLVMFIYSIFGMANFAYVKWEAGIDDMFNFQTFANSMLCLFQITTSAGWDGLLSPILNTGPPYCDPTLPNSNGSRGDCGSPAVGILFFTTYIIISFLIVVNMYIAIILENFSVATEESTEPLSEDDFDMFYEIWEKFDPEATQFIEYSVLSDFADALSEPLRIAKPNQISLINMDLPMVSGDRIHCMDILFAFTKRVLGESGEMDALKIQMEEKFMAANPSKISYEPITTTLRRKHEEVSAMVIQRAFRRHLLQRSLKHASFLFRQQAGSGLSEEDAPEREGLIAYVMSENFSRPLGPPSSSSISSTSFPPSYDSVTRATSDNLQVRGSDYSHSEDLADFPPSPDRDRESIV
Test: Amplification of Nav1.5-derived voltage-dependent sodium current (Nav1.5 current), cell line stably expressing human Nav1.5, automated patch clamp
Assay type: cell-based
Settings: 10 μmol/L compound; change of the area under the curve of Nav1.5 current (Test Result 1); read-out: Nav1.5 current amplification rate (%)
property-label: activation at 10 µM
Put your answer as a value accompanied by its unit after it.

Ask: For CN(C)c1cc(=O)n(CC(=O)Nc2ccc3ocnc3c2)nc1N1CCC2(CCCC2)C1 , what is its reported activation at 10 µM?
Result: 56%

Ask: And then Cc1cc(C2=CCC(C)(C)CC2)nn(CC(=O)N2CCN(c3cccnc3)CC2)c1=O , what is it?
Result: 4%

Ask: What do we get for COc1cc(N2CCC(C)(C)CC2)nn(CC(=O)N2CCc3c(N4CCOCC4)cccc32)c1=O ?
Result: 11%

Ask: Entry to check: Cc1cc(N2CCC3(CCC3)C2)nn(CC(=O)Nc2ccc3c(c2)OCC3)c1=O
Result: 3%

Ask: Next molecule up: CN(C)c1cc(N2CCC3(CCCC3)C2)nn(CC(=O)Nc2ccc3ocnc3c2)c1=O
Result: 18%

Ask: Follow-up entry: O=C(Cn1nc(N2CCC3(CCC3)C2)ccc1=O)Nc1ccc2scnc2c1
Result: 33%

Ask: Then what about the molecule O=C(Cn1nc(N2CCC3(CCC3)CC2)ccc1=O)Nc1cccc(-n2ccnc2)c1 ?
Result: 34%

Ask: Field entry: N#Cc1cc(NC(=O)Cn2nc(C3=CCC(F)(F)CC3)ccc2=O)ccn1
Result: 12%
